Hey, just so you know, these numbers are from patent US20240417371A1.

test: Solubility in water; type: physicochemical
// values below are reported solubility
Quick note: give the figure in mg/mL, leave out the unit.

Incoming: Please look up its solubility: C=C(C)[C@@H]1CCC(C)=C[C@H]1c1c(OCC(=O)N[C@@H](CCSC)C(=O)[O-])cc(CCCCC)cc1OCC(=O)N[C@@H](CCSC)C(=O)[O-].[Na+].[Na+] [Compound E2]
Outgoing: 200

Incoming: Please look up its solubility: C=C(C)[C@@H]1CCC(C)=C[C@H]1c1c(O)cc(CCCCC)cc1OCC(=O)N[C@@H](CCSC)C(=O)[O-].[Na+] [Compound E1]
Outgoing: 27
